Hello, the source for this data is ChEMBL document CHEMBL1201862, in case you need it.

- targetOrTestSystem: Prothrombin (Homo sapiens, UniProt P00734)
- experimentalProtocol: Thrombin 1536 HTS Dose Response Confirmation. [Related pubchem assays: 1046 (Thrombin 1536 HTS; hits were confirmed in this assay)]
- Assay type: functional
Active and inactive are the calls of the source. Cut-off read from the data, not from the text of the source: actives have a measured IC50 and inactives only a lower limit.
measuredMetric: IC50

IC50 recorded for this compound, Cc1nc(-c2cnn(-c3ccccc3)c2)c2cc(C)oc2n1 , is > 50 µM (not active)

Memo: Nc1cccc2c1=NC1(CCCCC1)[N+]=2[O-] , reported IC50: > 50 µM (not active)

Value of measured IC50 for the entry Cc1c(Cl)cnc(NC(=O)COC(=O)CCC(=O)c2cccs2)c1Cl : 2.77 µM (active)

Field IC50 (entry Cc1ccnc(NC(=O)c2ccc([N+](=O)[O-])o2)c1 ) reads > 50 µM (not active)

Memo: O=C(CSc1nc2ccccc2o1)c1cc2ccccc2oc1=O , reported IC50: > 50 µM (inconclusive)
